All values here come from patent US20240158392A1.

A collection of molecules and their measured IC50
Biological target: SIK2 (Homo sapiens, UniProt Q9H0K1)
Sequence (Q9H0K1 whole entry, species assumed): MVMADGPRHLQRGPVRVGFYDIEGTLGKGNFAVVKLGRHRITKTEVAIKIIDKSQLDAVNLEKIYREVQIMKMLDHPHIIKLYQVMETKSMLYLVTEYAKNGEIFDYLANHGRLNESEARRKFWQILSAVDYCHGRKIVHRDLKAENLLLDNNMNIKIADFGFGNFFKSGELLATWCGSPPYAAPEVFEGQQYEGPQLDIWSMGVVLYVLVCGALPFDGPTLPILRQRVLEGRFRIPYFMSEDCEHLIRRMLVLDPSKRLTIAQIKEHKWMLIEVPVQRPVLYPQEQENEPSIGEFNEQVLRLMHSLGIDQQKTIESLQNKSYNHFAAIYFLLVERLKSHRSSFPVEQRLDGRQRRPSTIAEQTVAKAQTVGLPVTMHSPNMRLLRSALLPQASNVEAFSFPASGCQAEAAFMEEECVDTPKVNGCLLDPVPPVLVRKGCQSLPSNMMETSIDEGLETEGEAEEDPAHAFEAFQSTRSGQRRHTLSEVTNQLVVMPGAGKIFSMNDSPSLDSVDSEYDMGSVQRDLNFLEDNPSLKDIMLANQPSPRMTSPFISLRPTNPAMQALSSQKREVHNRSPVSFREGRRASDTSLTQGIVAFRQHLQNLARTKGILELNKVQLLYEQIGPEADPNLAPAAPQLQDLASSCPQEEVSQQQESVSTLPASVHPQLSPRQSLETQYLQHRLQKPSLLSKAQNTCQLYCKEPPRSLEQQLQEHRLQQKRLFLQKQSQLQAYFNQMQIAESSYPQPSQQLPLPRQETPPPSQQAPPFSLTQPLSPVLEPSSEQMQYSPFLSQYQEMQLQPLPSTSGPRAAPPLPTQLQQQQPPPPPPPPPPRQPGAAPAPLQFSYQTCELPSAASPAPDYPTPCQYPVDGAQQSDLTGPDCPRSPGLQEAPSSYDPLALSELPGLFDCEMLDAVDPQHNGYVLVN
Assay: SIK2 Enzymatic Assay High Version 2 (High ATP)
Format: biochemical
Conditions: enzyme 6 nM, 6 mM ATP and 400 μM HDAC5tide (each 2× final concentration); 30 minutes pre-incubation, 2 hours; ADP-Glo Max luminescence; read-out: SIK2 high ATP IC50 (μM) (Test Example 2)
Your answer is read as µM, so omit the unit and give the number.

Use the examples below as a reference point.
• CCN1CC[C@@H](COc2cnc(C#N)cc2-c2ccn3nc(NC(=O)C4CC4)cc3c2)C1 = 0.00103
• Cc1cc(-c2ccn3nc(NC(=O)C4CC4)cc3c2)c(OCC2(C)CCN2C)cn1 (single isomer, unassigned) = 0.04
• O=C(Nc1cc2cc(-c3cc(C(F)(F)F)ncc3OC[C@@H]3CNCCO3)ccn2n1)C1CC1 = 0.116
• Cc1cc(-c2ccn3nc(Nc4cc(C(F)(F)F)c(C(=O)NC(C)C)cn4)cc3c2)c(OCC(C)(C)O)cn1 = 0.0868
• Cc1cc(Nc2cc3cc(-c4cc(OC(F)F)ncc4OCC(C)(N)C(F)(F)F)ccn3n2)nc(C)n1 (single isomer, unassigned) [Example 756] = 0.275

[ask] Could you please provide reported IC50 for "CC(C)(C#N)COc1cnc(OC(F)F)cc1-c1ccn2nc(Nc3cc(N)cnn3)cc2c1" ? Thanks!
[reply] 0.0206

[ask] Could you please provide reported IC50 for "Cc1cc(-c2ccn3nc(Nc4cc(C)nc(C)n4)cc3c2)c(O[C@H]2CC[C@H](C(N)=O)CC2)cn1" ? Thanks!
[reply] 0.0376

[ask] Could you please provide reported IC50 for Cc1cc(-c2ccn3nc(NC(=O)C4CC4)cc3c2)c(O[C@@H]2CCC[C@@H](O)C2)cn1 (single isomer, unassigned) ? Thanks!
[reply] 0.0412

[ask] Could you please provide reported IC50 for "Cc1cc(-c2ccn3nc(Nc4cc(C)c(=O)n(C)n4)cc3c2)c(O[C@H]2CC[C@@H](S(C)(=O)=O)CC2)cn1" ? Thanks!
[reply] 0.00117

[ask] Could you please provide reported IC50 for "COC1(COc2cnc(C)cc2-c2ccn3nc(NC(=O)C4CC4)cc3c2)CNC1" ? Thanks!
[reply] 0.00309

[ask] Could you please provide reported IC50 for "Cc1cc(-c2ccn3nc(Nc4cc(C)nc(C)n4)cc3c2)c(OC[C@H]2C[C@@H](C#N)C2)cn1" ? Thanks!
[reply] 0.0759

[ask] Could you please provide reported IC50 for Cc1cc(-c2ccn3nc(Nc4cc(C)nc(C)n4)cc3c2)c(OCC2CC(=O)N(C)C2(C)C)cn1 (racemic) ? Thanks!
[reply] 0.00265

[ask] Could you please provide reported IC50 for "Cc1cc(-c2ccn3nc(NC(=O)C4CC4)cc3c2)c(O[C@H]2CC[C@@](O)(c3ccccc3)CC2)cn1" ? Thanks!
[reply] 0.0612

[ask] Could you please provide reported IC50 for "COc1cc(-c2ccn3nc(Nc4cc(C)nc(C)n4)cc3c2)c(OC[C@H]2OCC[C@@H]2O)cn1" ? Thanks!
[reply] 0.0414

----------
Target: SIK2 (Homo sapiens, UniProt Q9H0K1)
Test: SIK2 Enzymatic Assay High Version 2 (High ATP)
Format: biochemical
Description: All steps were performed at room temperature. Compounds were pre-plated onto an assay plate using an Echo acoustic dispenser (Labcyte, E550 or E555) at 80 nL per well. […] The plate is then read on the Pherastar (BMG Labtech) using a luminescence read. […]
A collection of compounds and their measured log10(IC50)
// stored as log10 of IC50 expressed in nM

* CN1CC[C@H](COc2cnc(C#N)cc2-c2ccn3nc(NC(=O)C4CC4)cc3c2)C1 | 2.37
* COCCN1CC[C@H](Oc2cnc(C#N)cc2-c2ccn3nc(NC(=O)C4CC4)cc3c2)C1 | 2.31
* Cc1cc(-c2ccn3nc(NC(=O)C4CC4)cc3c2)c(OC[C@H]2C[C@@H](N)C2)cn1 | 1.09
* CNC(=O)c1ccnc(Nc2cc3cc(-c4cc(C)ncc4O[C@H]4C[C@H]5COC[C@@H](C4)N5)ccn3n2)c1 | -0.06
* Cc1cc(-c2ccn3nc(NC(=O)C4CC4)cc3c2)c(OC[C@@H]2CCN(C)C2)cn1 | 1.75

[ask] Provide log10(IC50), recorded with SIK2 (Homo sapiens, UniProt Q9H0K1), of "N#Cc1cc(-c2ccn3nc(NC(=O)C4CC4)cc3c2)c(OC[C@H]2CCCNC2)cn1"
[reply] 1.49

[ask] Provide log10(IC50), recorded with SIK2 (Homo sapiens, UniProt Q9H0K1), of CN1C[C@@H]2C[C@H]1C[C@H]2Oc1cnc(C#N)cc1-c1ccn2nc(NC(=O)C3CC3)cc2c1 (single isomer, unassigned)
[reply] 1.26

[ask] Provide log10(IC50), recorded with SIK2 (Homo sapiens, UniProt Q9H0K1), of "Cc1cc(-c2ccn3nc(NC(=O)C4CC4)cc3c2)c(O[C@@H]2[C@@H]3CO[C@H]2CN3)cn1"
[reply] 0.92

[ask] Provide log10(IC50), recorded with SIK2 (Homo sapiens, UniProt Q9H0K1), of "Cc1cc(-c2ccn3nc(Nc4ccccn4)cc3c2)c(OC[C@@H]2CNCCO2)cn1"
[reply] 0.63

[ask] Provide log10(IC50), recorded with SIK2 (Homo sapiens, UniProt Q9H0K1), of "Cc1cc(-c2ccn3nc(NC(=O)C4CC4)cc3c2)c(OC[C@H]2CCN2C2CC2)cn1"
[reply] 1.91

[ask] Provide log10(IC50), recorded with SIK2 (Homo sapiens, UniProt Q9H0K1), of "Cc1cc(-c2ccn3nc(Nc4ccccn4)cc3c2)c(O[C@H]2CC[C@H](O)CC2)cn1"
[reply] 1.53

[ask] Provide log10(IC50), recorded with SIK2 (Homo sapiens, UniProt Q9H0K1), of "Cc1cc(-c2ccn3nc(NC(=O)C4CC4)cc3c2)c(O[C@H]2C[C@](C)(N)C2)cn1"
[reply] 0.21
